system: HL-60(TB) leukemia; assay: NCI tumour cell line growth inhibition, 48 h
measurement name: TGI (µM)
Give bare numbers, in µM.

Known TGI results, listed for orientation:
{"molecule": "CC(C)=CCCC(C)[C@H]1CC(O)C2(C)C3=CCC4C(C)(C)[C@@H](O)CC[C@]4(C)C3=CC[C@]12C (stereo not given in full)", "measurement name": "TGI", "obs value": 35}
{"molecule": "COc1cc(C)c2c(c1C=O)Oc1c(c(C)c(O)c3c1C(O)OC3=O)OC2=O (stereo not given)", "measurement name": "TGI", "obs value": 48.4}
{"molecule": "CN(NC(=O)/C(=C/c1ccc(Cl)cc1)NC(=O)c1ccccc1)c1cn[nH]c(=O)c1Cl", "measurement name": "TGI", "obs value": 41.6}

Batch: TGI for all items listed.
1. CCc1c(-c2ccc(OC)cc2)c(=O)oc2cc(O)ccc12
2. COc1ccc(-c2cn3c(nc4ccccc43)c(/C=C/c3cccs3)n2)cc1

Reply:
32.6
89.7

Quick request: TGI for each listed item, please.
1. COc1ccc(-c2c(-c3cc(OC)c(OC)c(OC)c3)nc3sc(C4CC4)nn23)cc1OC
2. COc1cc(/C=C/C(=O)c2ccc(Nc3nc(Nc4ccc(F)cc4)nc(Nc4ccc(Cl)cc4)n3)cc2)cc(OC)c1OC
3. Cc1c(S(=O)(=O)/N=C(\NN)Nc2ccc(Cl)cc2)sc2ccc(Cl)cc12
4. C=C1CC2(OC1=O)C(=O)N(C)c1ccc(I)cc12 (stereo not given)

Reply:
[41.6, 3.23, 90.8, 1.54]

# credit: PubChem BioAssay (NCI)
